molecular target: recombinant human MAO-B (hMAOB) (Homo sapiens); assay: biochemical; type: biochemical; settings: 1 µM compound
Sequence (P27338 whole entry): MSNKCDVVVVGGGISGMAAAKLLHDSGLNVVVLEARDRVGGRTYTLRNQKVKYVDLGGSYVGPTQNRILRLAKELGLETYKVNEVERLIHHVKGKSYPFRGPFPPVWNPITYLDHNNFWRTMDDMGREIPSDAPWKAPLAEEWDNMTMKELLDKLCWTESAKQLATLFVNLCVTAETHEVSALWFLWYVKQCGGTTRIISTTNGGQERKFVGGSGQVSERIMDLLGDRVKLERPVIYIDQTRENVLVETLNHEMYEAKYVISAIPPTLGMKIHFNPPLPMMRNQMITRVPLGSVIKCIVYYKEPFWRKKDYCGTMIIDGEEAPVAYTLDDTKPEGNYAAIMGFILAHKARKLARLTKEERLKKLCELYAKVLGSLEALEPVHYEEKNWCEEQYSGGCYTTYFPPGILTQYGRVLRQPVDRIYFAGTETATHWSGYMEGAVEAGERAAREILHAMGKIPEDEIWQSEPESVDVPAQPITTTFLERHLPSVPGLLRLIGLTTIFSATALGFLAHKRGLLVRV
Parameter: inhibition at 1 µM. Scope: all listed entries.
recorded.endpoint: inhibition at 1 µM (%)

1. Cc1ccc(C)n1CC(C)c1ccc(O)cc1 (centres unmarked) [EM-DC-11]    97
2. Cc1ccc(C)n1-c1ccc(O)cc1 [EM-DC-1, 4-(2,5-dimethyl-1H-pyrrol-1-yl)phenol]    99
3. Cc1ccc(C)n1-c1ccc2c(c1)OCO2 [EM-DC-6]    98
4. Cc1ccc(C)n1C(Cc1ccc(O)c(O)c1)C(=O)O (centres unmarked) [EM-DC-23]    98
5. Cc1ccc(C)n1-c1ccccc1Br [EM-DC-3]    75
